The entries that follow carry log10 IC50 values tested on Histone deacetylase 3 (Homo sapiens), drawn from several published reports.
Sequence (O15379 whole entry): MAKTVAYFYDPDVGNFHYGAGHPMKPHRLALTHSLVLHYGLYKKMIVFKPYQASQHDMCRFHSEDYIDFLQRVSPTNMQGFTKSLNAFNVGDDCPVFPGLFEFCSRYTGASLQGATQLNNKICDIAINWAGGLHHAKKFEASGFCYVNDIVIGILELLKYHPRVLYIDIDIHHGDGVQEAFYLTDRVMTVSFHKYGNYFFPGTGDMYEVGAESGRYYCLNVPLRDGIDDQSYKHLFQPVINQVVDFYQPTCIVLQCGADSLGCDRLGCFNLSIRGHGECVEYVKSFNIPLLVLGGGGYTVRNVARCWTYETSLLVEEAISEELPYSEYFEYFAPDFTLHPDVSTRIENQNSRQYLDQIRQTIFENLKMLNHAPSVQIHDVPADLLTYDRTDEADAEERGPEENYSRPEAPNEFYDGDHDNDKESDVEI
assay-endpoint: log10 IC50 (log10 of the value in nM)

structure_as_smiles=CCCNNC(=O)CCCCCCNC(=O)c1cnc(-c2ccc(F)cc2F)s1 endpoint_value=2.86
structure_as_smiles=COc1ccc(CN(C(=O)Cc2ccc(C(=O)Nc3ccccc3N)cc2)c2cc(OC)c(OC)c(OC)c2)cc1O endpoint_value=3.72
structure_as_smiles=CCCNNC(=O)CCCCCCNC(=O)c1cnc(-c2ccc(NC(=O)OC(C)(C)C)cc2)s1 endpoint_value=2.49
structure_as_smiles=CN1c2ccccc2C(=O)N2[C@H](C(=O)Nc3ccc(C(=O)Nc4ccccc4N)cc3)Cc3c([nH]c4ccccc34)[C@@H]12 endpoint_value=1.43
structure_as_smiles=CCCNNC(=O)c1ccc(NC(=O)c2cnc(-c3cc4ccc5cccc6ccc(c3)c4c56)s2)cc1 endpoint_value=2.99
structure_as_smiles=Cc1c(F)c(N)cc(C(=O)Nc2cc(-c3ccc(NC(=O)c4ccc(/C=C/C(=O)NO)cc4)cc3)ccc2N2CCN(C)CC2)c1Cl endpoint_value=3.77
